- experimentalSystem: tau (Homo sapiens, UniProt P10636)
- Sequence (P10636 623-695 limits assumed): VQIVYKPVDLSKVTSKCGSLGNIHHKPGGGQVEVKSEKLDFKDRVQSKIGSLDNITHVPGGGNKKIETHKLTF
- assayName: MCE Phenols Library screening, tau biosensor cell seeding assay (AvZ)
- Format: cell-based
- setupConditions: Z score, replicate 1
readout: Z repl 1
Respond with the number and no other words.

Some solved cases for reference:
molecule: Cc1cccc(O)c1O
readout: Z repl 1
observed: -0.458
--
molecule: OC[C@H]1O[C@@H](Oc2ccc(O)cc2)[C@H](O)[C@@H](O)[C@@H]1O [Arbutin]
readout: Z repl 1
observed: -0.665
--
molecule: CC(=O)c1c(O)c(C)c(O)c(Cc2c(O)c3c(c(C(=O)/C=C/c4ccccc4)c2O)OC(C)(C)C=C3)c1O
readout: Z repl 1
observed: 0.296
--
molecule: O=C(O[C@@H]1Cc2c(O)cc(O)cc2O[C@H]1c1ccc(O)c(O)c1)c1cc(O)c(O)c(O)c1 [(-)-Catechin gallate]
readout: Z repl 1
observed: -0.615
--
molecule: O=C(C=Cc1ccc(O)c(O)c1)OC1CC(OC(=O)C=Cc2ccc(O)c(O)c2)(C(=O)O)CC(O)C1O (stereo not drawn)
readout: Z repl 1
observed: -1.077

Data request: What does the record list as Z repl 1 for COC(=O)/C=C/c1ccc(O)cc1 [(E)-Methyl 4-coumarate] ?
Data returned: 0.336

Data request: What does the record list as Z repl 1 for O=C1c2c(O)cc(O)cc2O[C@H](c2cc(O)c(O)c(O)c2)[C@H]1O [Dihydromyricetin] ?
Data returned: -1.346

###

- experimentalSystem: tau (Homo sapiens)
- assayName: MCE Phenols Library screening, tau biosensor cell seeding assay (AvZ)
- Assay type: cell-based
- setupConditions: Z score, replicate 2
readout: Z Repl 2

compound: C[C@@H]1O[C@@H](Oc2cc(O)c3c(=O)c(O)c(-c4ccc(O)c(O)c4)oc3c2)[C@H](O)[C@H](O)[C@H]1O [Vincetoxicoside B]
observed: -0.479
--
compound: CC[C@H]1CN2CCc3cc(OC)c(OC)cc3[C@@H]2C[C@@H]1C[C@H]1NCCc2cc(O)c(OC)cc21.Cl.Cl [Cephaeline (dihydrochloride)]
observed: -0.66
--
compound: O=C(O[C@@H]1[C@@H](O)[C@H](Oc2cc(O)c(C(=O)CCc3ccccc3)c(O)c2)O[C@@H]2COC(=O)c3cc(O)c(O)c(O)c3-c3c(cc(O)c(O)c3O)C(=O)O[C@@H]12)c1cc(O)c(O)c(O)c1
observed: -0.652
--
compound: C[C@@H]1O[C@@H](OC[C@H]2O[C@@H](OCCc3ccc(O)c(O)c3)[C@H](O)[C@@H](OC(=O)/C=C/c3ccc(O)c(O)c3)[C@@H]2O)[C@H](O)[C@H](O)[C@H]1O [Forsythoside I]
observed: -0.666
--
compound: NCc1ccc(O)cc1 [4-Hydroxybenzylamine]
observed: -0.451
--
compound: C[C@@H]1O[C@@H](Oc2c(-c3ccc(O)c(O)c3)oc3cc(O)cc(O)c3c2=O)[C@H](O)[C@H](O)[C@H]1O
observed: -0.329

Data request: For the record O=c1cc(-c2ccc(O)cc2)oc2cc(O)c([C@@H]3O[C@H](CO)[C@@H](O)[C@H](O)[C@H]3O[C@@H]3O[C@H](CO)[C@@H](O)[C@H](O)[C@H]3O)c(O)c12 [Meloside A] , what value of Z Repl 2 is listed for tau (Homo sapiens)?
Data returned: -0.878

Data request: For the record O=C(O)CC(O)(CC(=O)OCc1ccc(O[C@@H]2O[C@H](CO)[C@@H](O)[C@H](O)[C@H]2O)cc1)C(=O)O (stereo partly shown) , what value of Z Repl 2 is listed for tau (Homo sapiens)?
Data returned: -0.216

Data request: For the record O=c1c(O[C@@H]2O[C@H](CO)[C@H](O)[C@H](O)[C@H]2O)c(-c2ccc(O)c(O)c2)oc2cc(O)cc(O)c12 [Hyperoside] , what value of Z Repl 2 is listed for tau (Homo sapiens)?
Data returned: -0.241

###

- experimentalSystem: tau (Homo sapiens, UniProt P10636)
- assayName: MCE Phenols Library screening, tau biosensor cell seeding assay (AvZ)
- Type: cell-based
- setupConditions: puncta, replicate 1
readout: raw data 1
Respond with the number and no other words.

Some solved cases for reference:
molecule: O=c1oc2c(O)c(O)cc3c(=O)oc4c(O)c(O)cc1c4c23
raw data 1: 13826.2

molecule: O=C(/C=C/c1ccc(O)cc1)c1ccc(O[C@@H]2O[C@H](CO)[C@@H](O)[C@H](O)[C@H]2O)cc1O
raw data 1: 25794.8

molecule: COc1cc(/C=C/C(=O)O[C@H]2[C@H](O)C[C@](O)(C(=O)O)C[C@H]2O)ccc1O
raw data 1: 6875.06

Query molecule follows.
Data request: What does the record list as raw data 1 for COc1cc(O)c2c(=O)cc(-c3ccc(O)cc3)oc2c1 ?
Data returned: 41129.3

###

// raw data 1 lookup, one value per entry
- experimentalSystem: UniProtKB P10636
- assayName: MCE Phenols Library screening, tau biosensor cell seeding assay (AvZ)
- Format: cell-based
- setupConditions: puncta, replicate 1
Respond with the number and no other words.

compound: COc1ccc(-c2oc3c(CC=C(C)C)c(O[C@@H]4O[C@H](CO)[C@@H](O)[C@H](O)[C@H]4O)cc(O)c3c(=O)c2O[C@@H]2O[C@@H](C)[C@H](O)[C@@H](O)[C@H]2O[C@@H]2O[C@H](CO)[C@@H](O)[C@H](O)[C@H]2O)cc1 [Epimedin A]
observed: 10713.2
//
compound: O=C(O)Cc1ccccc1O [2-Hydroxyphenylacetic acid]
observed: 10246.8
//
compound: COc1ccc2c(=O)c(-c3ccc(O)cc3)coc2c1
observed: 30549.1

Query compound follows.
Data request: For the record N#CCc1ccc(O)cc1 [4-Hydroxybenzyl cyanide] , what value of raw data 1 is listed for UniProtKB P10636?
Data returned: 31425.1

###

- experimentalSystem: tau (Homo sapiens, UniProt P10636)
- assayName: MCE Phenols Library screening, tau biosensor cell seeding assay (AvZ)
- Format: cell-based
- setupConditions: average Z score of the two replicates, MCE Phenols Library screen
readout: av Z
Respond with the number and no other words.

compound: O=c1cc(-c2ccc(O)cc2)oc2cc(O)c([C@@H]3O[C@H](CO)[C@@H](O)[C@H](O)[C@H]3O[C@@H]3O[C@H](CO)[C@@H](O)[C@H](O)[C@H]3O)c(O)c12 [Meloside A]
observed: -1.091

Data request: What does the record list as av Z for O=C(CCc1ccc(O)cc1)c1c(O)cc(O)cc1O[C@@H]1O[C@H](CO)[C@@H](O)[C@H](O)[C@H]1O [Phlorizin] ?
Data returned: -0.288

Data request: What does the record list as av Z for Oc1cc(O)c2c(c1)O[C@H](c1ccc(O)c(O)c1)[C@@H](O)[C@H]2O [Leucocyanidin] ?
Data returned: -0.251

###

- experimentalSystem: tau (Homo sapiens, UniProt P10636)
- assayName: MCE Phenols Library screening, tau biosensor cell seeding assay (AvZ)
- Type: cell-based
- setupConditions: puncta, replicate 2
readout: raw data 2
Respond with the number and no other words.

Data request: What does the record list as raw data 2 for O=C(O)c1cc(O)c2c(c1)C(=O)c1cccc(O[C@@H]3O[C@H](CO)[C@@H](O)[C@H](O)[C@H]3O)c1C2=O [Rhein 8-Glucoside] ?
Data returned: 17399.4

Data request: What does the record list as raw data 2 for COc1ccc(-c2coc3cc(O)ccc3c2=O)cc1O ?
Data returned: 7102.22

Data request: What does the record list as raw data 2 for OCCc1ccc(O)cc1 ?
Data returned: 15904.1

###

// Z Repl 2 lookup, one value per entry
- experimentalSystem: tau (Homo sapiens)
- assayName: MCE Phenols Library screening, tau biosensor cell seeding assay (AvZ)
- Assay type: cell-based
- setupConditions: Z score, replicate 2
Respond with the number and no other words.

Some solved cases for reference:
compound: Oc1cc(O)cc(-c2cc3ccc(O)cc3o2)c1
observed: -0.745
//
compound: CC(C)=CCc1cc(-c2coc3cc(O)ccc3c2=O)ccc1O
observed: -0.147
//
compound: O=Cc1ccc(O)c(O)c1
observed: -0.283
//
compound: COc1cc(O)ccc1/C=C/C(=O)c1ccc(O)cc1
observed: -0.742

Data request: What does the record list as Z Repl 2 for Cc1cc(=O)c2c(O)cc(O)cc2o1 ?
Data returned: -0.457

Data request: What does the record list as Z Repl 2 for O=c1cc(-c2ccccc2)oc2cccc(O)c12 [5-Hydroxyflavone] ?
Data returned: -0.72

Data request: What does the record list as Z Repl 2 for O=C(C=Cc1ccc(O)c(O)c1)OC1CC(OC(=O)C=Cc2ccc(O)c(O)c2)(C(=O)O)CC(O)C1O (stereo not drawn) ?
Data returned: -0.588

Data request: What does the record list as Z Repl 2 for Oc1cc(O)c2c(c1)O[C@@H](c1cc(O)c(O)c(O)c1)[C@H](O)C2 [(-)-Gallocatechin] ?
Data returned: -0.749

Data request: What does the record list as Z Repl 2 for C/C=C/c1cc(OC)c2c(c1)C(C)C(c1ccc(O)c(OC)c1)O2 (stereo not drawn) [Dehydrodiisoeugenol] ?
Data returned: 0.419
